target: Uncharacterized protein FLJ45252 (Homo sapiens); conditions: read-out: Kd apparent; k-562, colo 205, sk-n-be(2) and mv-4-11; also: in the data inactive means no Kd found up to 30 µM
Sequence (Q6ZSR9 whole entry): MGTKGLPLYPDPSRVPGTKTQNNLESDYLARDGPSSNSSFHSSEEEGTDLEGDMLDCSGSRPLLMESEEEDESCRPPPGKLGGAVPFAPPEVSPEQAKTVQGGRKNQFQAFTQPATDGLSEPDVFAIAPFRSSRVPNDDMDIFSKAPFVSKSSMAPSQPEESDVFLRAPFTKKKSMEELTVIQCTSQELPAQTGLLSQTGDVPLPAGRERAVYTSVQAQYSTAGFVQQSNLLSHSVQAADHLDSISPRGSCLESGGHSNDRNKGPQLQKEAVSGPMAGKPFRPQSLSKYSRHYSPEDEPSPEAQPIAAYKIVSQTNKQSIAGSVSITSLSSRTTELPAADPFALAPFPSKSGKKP
Active and inactive are the calls of the source. Rule as the data show it: actives have a measured Kd and inactives only a lower limit.
Outcomes you can answer with include only these: active, inactive

Which outcome was entered for the compound `CNC(=O)c1cccc(-c2ccc3c(N4CCOC[C@@H]4C)nc(N4CCOC[C@@H]4C)nc3n2)c1` in this test?
inactive

Which outcome was entered for the compound `CNC(=O)c1ccc(Nc2ncc(C(F)(F)F)c(NCc3nccnc3N(C)S(C)(=O)=O)n2)cc1` in this test?
inactive

Which outcome was entered for the compound `Cc1cc(Nc2nc(N[C@@H](C)c3ncc(F)cn3)ncc2Cl)n[nH]1` in this test?
inactive

Which outcome was entered for the compound `Cc1ccc(C(=O)Nc2ccc(Oc3cc4cnn(C)c4cc3-c3cn[nH]c3)c(F)c2)c(=O)n1-c1ccc(F)cc1` in this test?
inactive

Which outcome was entered for the compound `CN(C)C/C=C/C(=O)Nc1cc2c(Nc3ccc(F)c(Cl)c3)ncnc2cc1O[C@H]1CCOC1` in this test?
inactive

Which outcome was entered for the compound `COc1cc2ncnc(Nc3ccc(O)cc3)c2cc1OC` in this test?
active

Which outcome was entered for the compound `C#Cc1cccc(Nc2ncnc3cc4c(cc23)OCCOCCOCCO4)c1` in this test?
inactive

Which outcome was entered for the compound `O=c1[nH]c([C@@H]2CCCN2)nc2c1oc1ccc(Cl)cc12` in this test?
inactive
